# system.tested: Protein RecA (Mycobacterium tuberculosis, UniProt P9WHJ3)
# assay.remarks: Fluorescence Cell-Free Homogeneous Dose Retest to Identify Inhibitors of RecA-Intein Splicing Activity. [Related pubchem assays (depositor defined):AID2097, AID2223, AID489010, AID492950]
# Assay type: functional
Calls of active or inactive are those of the source. No stated cut-off is given here; in the data, actives have a measured EC50 and inactives only a lower limit.
Outcome codes: 1 (active), 0 (inactive)

>>> print(df.to_string())
                                    compound  assigned_label
 0     CCN(CC)C(=O)CSc1nnc2nnc3cc(Cl)ccc3n12               1
 1  CCOC(=O)c1c(C)oc2c1c(/C=N/CCO)c(O)c1ccccc12               1
 2  N#CC1=C(N)Oc2[nH]nc(-c3ccccc3)c2C1c1cccnc1 (stereo not drawn)               1
 3  Cc1ccc(C(=O)C(OC(=O)CN2C(=O)c3ccccc3C2=O)c2ccccc2)cc1C (stereo not drawn)               0
 4  Cc1ccc(S(=O)(=O)NCC2CCC(C(=O)NCCCN3CCOCC3)CC2)cc1 (stereo not drawn)               0
 5          CCCCCCOc1ccc(C(=O)n2cnc(N)n2)cc1               1
 6  O=C(CCl)Nc1cccc(CP(=O)(c2ccccc2)c2ccccc2)c1               1
 7   CCOC(=O)c1nnc(-c2cccs2)nc1Oc1ccc(Cl)cc1               1
 8  COc1ccc(-c2[nH]nc3c2C(c2ccsc2)C(C#N)=C(N)O3)cc1 (stereo not drawn)               1
 9  CC(=O)N(C)C1=C(N2CCOCC2)C(=O)c2ccccc2C1=O               1
10  O=C(O)CN1C(=O)/C(=C\c2cccc(OC(=O)c3ccco3)c2)SC1=S               1
11           Cc1cc(OC(=O)c2ccccc2)n(CCC#N)n1               1
12  Cc1ccc(N2C(=O)C(Cl)=C(N3CCN(C)CC3)C2=O)c(C)c1               1

---

Measured EC50 values are reported for all entries that follow.
# assay.remarks: NIH-3T3 fibroblast cytotoxicity, dose response, cytotoxicity control, cell-based, fluorescence, Alamar Blue, secondary assay (AID 2327);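 further: NIH-3T3 mouse fibroblasts cultured with fluconazole at 8 µg/mL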
# Assay type: functional
Active and inactive are the calls of the source. Rule as the data show it: actives have a measured EC50 and inactives only a lower limit.
parameter: EC50

                                   compound                   result
0  COc1ccc(-[n+]2c(-c3ccc(Cl)cc3)cn3c2CCc2ccccc2-3)cc1      > 150 µM (inactive)
1     O=[N+]([O-])c1cccnc1S(=O)(=O)c1ccccc1   4.24 µM (inconclusive)
2     CSC(=Nc1ccc(Br)cc1F)NS(=O)(=O)c1cccs1      > 150 µM (inactive)
3  COc1ccc(C(=O)N2c3ccccc3C=CC2C#N)cc1 (configuration not stated)  > 160 µM (inconclusive)
4  COc1cc2c(O)c3c(c(-c4ccc5c(c4)OCO5)c2cc1OC)C(=O)OC3         33.5 µM (active)
5       Cc1cccc(C(=O)CC(=O)c2cc(Cl)ccc2O)c1         34.3 µM (active)
6  CCOc1cc(C=O)cc(N=Nc2cccc([N+](=O)[O-])c2)c1O      > 150 µM (inactive)
